# System: Saccharomyces cerevisiae;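 note: PSI is a weighted mean of sequencing reads over stability bins, variants kept only with over 10 reads, mCherry proximal and sfGFP distal, peptide attached via GGGS linker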
# protocolNotes: protein stability index of tFT-peptide fusion (C-terminal peptide) (PSI (0-1 scale)); higher = more stable (slower turnover)
# assayContext: genetic background: wild type; temperature: 30 C
Kindly state protein stability index for each of the entries shown.
Answers are plain numbers.

{"sequenceChain": "DWLAFSYYFSVV", "protein stability index": 0.599}
{"sequenceChain": "GIASKCFWFVCG", "protein stability index": 0.645}
{"sequenceChain": "SPWWAPPSPPYP", "protein stability index": 0.582}
{"sequenceChain": "YYQVSQKIQRKQ", "protein stability index": 0.435}
{"sequenceChain": "GEDFRVLVFVRL", "protein stability index": 0.556}

Hello, I would appreciate it if you could give protein stability index for each entry below.
1. DLPSSPCSYFRR
2. ITNQVIRLSLSN

Reply:
1. 0.616
2. 0.732
